Origin of values: the supplement of paper PMC10567573

B1: KRT13 (parent)
chain: TSSASVTTTSNASGRRTSDVRRP

Variants of: B1
Assay: protein stability index of a GFP-peptide fusion (GPS, HEK-293T) (PSI 1-6); higher = more stable;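 also: lentivirally expressed fusions sorted by FACS into six bins by GFP to DsRed ratio, PSI derived from sequencing read proportions per bin multiplied by bin number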
Conditions: c terminus: native
metric.name: protein stability index

mutations=N11H metric_name="protein stability index" reported_result=1.8
mutations=R22L metric_name="protein stability index" reported_result=1.38
mutations=R21E metric_name="protein stability index" reported_result=5.51
mutations=P23N metric_name="protein stability index" reported_result=2.27
mutations=S3Y metric_name="protein stability index" reported_result=1.46
mutations=R22N metric_name="protein stability index" reported_result=3.07
mutations=T9K metric_name="protein stability index" reported_result=2.19
mutations=S3W metric_name="protein stability index" reported_result=1.65
mutations=T8D metric_name="protein stability index" reported_result=2.08
mutations=S5M metric_name="protein stability index" reported_result=1.88
mutations=P23K metric_name="protein stability index" reported_result=4.84
mutations=G14I metric_name="protein stability index" reported_result=2.46
mutations=G14D metric_name="protein stability index" reported_result=1.88
mutations=V6A metric_name="protein stability index" reported_result=2.14
mutations=P23C metric_name="protein stability index" reported_result=2.42
mutations=R21Y metric_name="protein stability index" reported_result=5.15
mutations=R22P metric_name="protein stability index" reported_result=2.62
mutations=S10V metric_name="protein stability index" reported_result=2.99
mutations=T1D metric_name="protein stability index" reported_result=2.46
mutations=V20N metric_name="protein stability index" reported_result=2.13
mutations=R15L metric_name="protein stability index" reported_result=2.37
mutations=T9N metric_name="protein stability index" reported_result=1.81
mutations=S10C metric_name="protein stability index" reported_result=4.58
mutations=D19K metric_name="protein stability index" reported_result=2.25
mutations=A4N metric_name="protein stability index" reported_result=2.16
mutations=A12P metric_name="protein stability index" reported_result=2.25
mutations=T9P metric_name="protein stability index" reported_result=1.97
mutations=R15E metric_name="protein stability index" reported_result=2.43
mutations=A4K metric_name="protein stability index" reported_result=3.21
mutations=R16E metric_name="protein stability index" reported_result=2.08
mutations=S18A metric_name="protein stability index" reported_result=4.56
mutations=A12F metric_name="protein stability index" reported_result=3.48
mutations=R21H metric_name="protein stability index" reported_result=5.55
mutations=G14N metric_name="protein stability index" reported_result=2.03
mutations=S5F metric_name="protein stability index" reported_result=3.27
mutations=R15Y metric_name="protein stability index" reported_result=2.03
mutations=S18Q metric_name="protein stability index" reported_result=2.82
mutations=G14C metric_name="protein stability index" reported_result=1.75
mutations=V6K metric_name="protein stability index" reported_result=2.39
mutations=P23L metric_name="protein stability index" reported_result=4.45
mutations=S10H metric_name="protein stability index" reported_result=2.48
mutations=T1W metric_name="protein stability index" reported_result=2.43
mutations=A4G metric_name="protein stability index" reported_result=2.25
mutations=R15K metric_name="protein stability index" reported_result=1.49
mutations=A12C metric_name="protein stability index" reported_result=3.03
mutations=S13D metric_name="protein stability index" reported_result=1.45
mutations=S5H metric_name="protein stability index" reported_result=3.91
mutations=S3T metric_name="protein stability index" reported_result=1.81
mutations=T1Y metric_name="protein stability index" reported_result=3.12
mutations=A4T metric_name="protein stability index" reported_result=2.02
mutations=R15I metric_name="protein stability index" reported_result=2.36
mutations=S10D metric_name="protein stability index" reported_result=2.05
mutations=T8P metric_name="protein stability index" reported_result=1.64
mutations=N11I metric_name="protein stability index" reported_result=1.08
mutations=R16M metric_name="protein stability index" reported_result=2.14
mutations=R16A metric_name="protein stability index" reported_result=1.65
mutations=T9D metric_name="protein stability index" reported_result=2.05
mutations=S10P metric_name="protein stability index" reported_result=2.11
mutations=D19V metric_name="protein stability index" reported_result=3.02
mutations=R15H metric_name="protein stability index" reported_result=2.61
mutations=V6Q metric_name="protein stability index" reported_result=1.69
mutations=N11T metric_name="protein stability index" reported_result=2.74
mutations=T17H metric_name="protein stability index" reported_result=2.66
mutations=A4H metric_name="protein stability index" reported_result=2.6
mutations=T9E metric_name="protein stability index" reported_result=2.58
mutations=V6R metric_name="protein stability index" reported_result=1.97
mutations=D19H metric_name="protein stability index" reported_result=1.73
mutations=R16D metric_name="protein stability index" reported_result=1.66
mutations=V20G metric_name="protein stability index" reported_result=2.03
mutations=N11L metric_name="protein stability index" reported_result=2.98
mutations=R21C metric_name="protein stability index" reported_result=4.97
mutations=S18T metric_name="protein stability index" reported_result=2.85
mutations=N11D metric_name="protein stability index" reported_result=1.71
mutations=P23T metric_name="protein stability index" reported_result=4.53
mutations=T17E metric_name="protein stability index" reported_result=1.63
mutations=D19M metric_name="protein stability index" reported_result=3.59
mutations=R15Q metric_name="protein stability index" reported_result=2.53
mutations=R21K metric_name="protein stability index" reported_result=5.25
mutations=T1N metric_name="protein stability index" reported_result=1.34
mutations=R21W metric_name="protein stability index" reported_result=5.35
mutations=G14V metric_name="protein stability index" reported_result=2.64
mutations=S13Q metric_name="protein stability index" reported_result=1.37
mutations=S2N metric_name="protein stability index" reported_result=3.25
mutations=S13G metric_name="protein stability index" reported_result=1.7
mutations=G14R metric_name="protein stability index" reported_result=2.21
mutations=V20C metric_name="protein stability index" reported_result=2.16
mutations=T7W metric_name="protein stability index" reported_result=3.38
mutations=S3H metric_name="protein stability index" reported_result=2.54
mutations=R16Y metric_name="protein stability index" reported_result=3.97
mutations=T9G metric_name="protein stability index" reported_result=1.73
mutations=S18G metric_name="protein stability index" reported_result=1.23
